Tested on: HOP-62
Measurement Description: Growth inhibition of human HOP62 cells assessed as cell growth at 10 uM after 48 hrs by sulforhodamine B assay
Format: functional
Condition Info: HOP-62, 48 h, read-out: Activity

{"Input Smiles": "CCOc1ccc(-n2nc(C(=O)Nc3ccc(F)c(F)c3)nc2-c2cc(OC)c(OC)c(OC)c2)cc1", "growth at 10 µM / %": 89.1}
{"Input Smiles": "CCOc1ccc(-n2nc(C(=O)Nc3cc(OC)c(OC)c(OC)c3)nc2-c2cc(OC)c(OC)c(OC)c2)cc1", "growth at 10 µM / %": 95.7}
{"Input Smiles": "CCOc1ccc(-n2nc(C(=O)Nc3cc(F)cc(F)c3)nc2-c2cc(OC)c(OC)c(OC)c2)cc1", "growth at 10 µM / %": 95}

Values from ChEMBL document CHEMBL4138126
